target: HLA-A*02:01 (human); assay: UV peptide exchange + HLA class I ELISA; details: remark: other sources report otherwise
metric: exchange rate vs Pos peptide (%)

Here's what some known entries look like.
                                     binder                        metric  unit_descriptor  observed_result
0  CYLGRQKRF (here or on the partner: biotinylated heavy chain) [P61 9-mer peptide (FOXA1.p.R261G)]  exchange rate vs Pos peptide                %              5.8
1  LMAQRLLLR (here or on the partner: biotinylated heavy chain) [P97 9-mer peptide (FOXRED2-TXN2 fusion)]  exchange rate vs Pos peptide                %              4.6
2  IPVLTRWPL (here or on the partner: biotinylated heavy chain) [P19 9-mer peptide (TMEM222-LOC644961 fusion)]  exchange rate vs Pos peptide                %              8.2

A = YQFTFDLLI (here or on the partner: biotinylated heavy chain) [P48 9-mer peptide (AR.p.H875Y)]
B = YLRRQKRLK (here or on the partner: biotinylated heavy chain) [P60 9-mer peptide (FOXA1.p.F266L)]
# compare exchange rate vs Pos peptide for A vs B ; return the one with the smaller value Your answer should be the label attached to the chosen record.
B
